# System: human platelets in platelet-rich plasma
# protocolSummary: Platelet aggregation inhibition assay (ADP-induced, platelet-rich plasma)
# Format: cell-based
# protocolConditions: fresh human platelet-rich plasma, 300,000 platelets per microliter; ADP 10 to 15 micromolar; read-out: IC50: concentration of reagent that inhibits by 50% the aggregation of human platelets in platelet-rich plasma induced by ADP
pIC50: −log10 of the molar value.
Each entry below carries its recorded pIC50.
observable: pIC50

substance="GRGDVRGDFKCAcm GCAcm amide [Peptide P97]" assayresult=5.10
substance="GRDGVRGDFCAcm GCAcm amide [Peptide P98]" assayresult=4.82
substance="(CH2 CO--YD ApcGDCKGCAcm GCAcm GGC-amide)2 --BSME [Peptide P381]" assayresult=7.46
